biological target: UniProtKB Q13574; assay: biochemical; format: biochemical; conditions: liposome (LIPGLO) assay; read-out: DGKζ LIPGLO IC50
EXPERIMENTAL_ENDPOINT: log10(IC50) (log10 of the value in µM)
Units before log transform: µM; reported quantity: IC50; transform: log10.

Recorded results for 4 molecules are shown here.
molecule="COc1cccc(OC2CCN(c3c(C#N)c(=O)n(C)c4ccc(Cl)nc34)CC2)c1 [Example 10]" result=0.45
molecule="C[C@@H]1CN(c2cc(=O)n(C)c3ccc(C#N)nc23)CC[C@H]1Oc1ccc(F)cc1C(F)(F)F [Example 116]" result=1.11
molecule="Cc1cccc(O[C@@H]2CCN(c3cc(=O)n(C)c4ccc(C#N)nc34)C[C@H]2C)c1 (single isomer, unassigned) [Example 109]" result=1.46
molecule="Cn1c(=O)c(C#N)c(N2CCC(Oc3ccc(OC(F)(F)F)cc3Cl)CC2)c2nc(Cl)ccc21 [Example 41]" result=1.36

Sample CC[C@@H]1CN(c2cc(=O)n(C)c3ccc(C#N)nc23)CC[C@H]1Oc1cccc(C(C)C)c1 (single isomer, unassigned) [Example 138] ; log10(IC50) observed: -0.10

Sample CC(C)c1ccc(O[C@@H]2CCN(c3cc(=O)n(C)c4ccc(C#N)nc34)C[C@H]2C)cc1 [Example 94] ; log10(IC50) observed: 0.79

Sample Cn1c(=O)cc(N2CCC(Oc3nccc4cccnc34)CC2)c2nc(C#N)ccc21 [Example 74] ; log10(IC50) observed: 0.52

###

target: DGKα (Homo sapiens (Human), UniProt P23743); experiment: biochemical; type: biochemical; conditions: read-out: DGKα LIPGLO IC50
Sequence (P23743 whole entry, looked up): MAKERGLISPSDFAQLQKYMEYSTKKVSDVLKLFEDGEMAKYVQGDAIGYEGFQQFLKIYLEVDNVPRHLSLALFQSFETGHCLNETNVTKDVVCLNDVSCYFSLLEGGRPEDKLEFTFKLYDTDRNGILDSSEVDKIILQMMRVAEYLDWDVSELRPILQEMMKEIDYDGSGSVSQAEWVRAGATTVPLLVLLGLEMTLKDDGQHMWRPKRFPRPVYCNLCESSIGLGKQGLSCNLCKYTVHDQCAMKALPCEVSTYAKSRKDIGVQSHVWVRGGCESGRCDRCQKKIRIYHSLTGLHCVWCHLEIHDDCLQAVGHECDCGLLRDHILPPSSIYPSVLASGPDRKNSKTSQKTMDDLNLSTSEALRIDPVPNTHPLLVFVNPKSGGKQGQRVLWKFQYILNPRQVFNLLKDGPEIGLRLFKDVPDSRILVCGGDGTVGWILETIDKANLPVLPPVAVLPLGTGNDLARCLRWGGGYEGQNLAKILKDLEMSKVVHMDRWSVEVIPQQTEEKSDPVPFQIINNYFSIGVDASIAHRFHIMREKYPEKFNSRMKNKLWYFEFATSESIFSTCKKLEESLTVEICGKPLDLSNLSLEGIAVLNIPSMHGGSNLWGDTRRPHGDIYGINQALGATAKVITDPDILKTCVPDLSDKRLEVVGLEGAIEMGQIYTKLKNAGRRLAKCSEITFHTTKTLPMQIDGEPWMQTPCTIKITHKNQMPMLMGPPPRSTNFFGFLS
Known IC50 of a selection of compounds

Sample CCC(C)(C)c1ccc(O[C@H]2CCN(c3cc(=O)n(C)c4ccc(C#N)nc34)C[C@H]2C)cc1 (single isomer, unassigned) [Example 171] ; IC50 observed: 1400 nM

Sample C[C@@H]1CN(c2cc(=O)n(C)c3ccc(C#N)nc23)CC[C@@H]1Oc1ccc(OC(C)(C)C)cc1 [Example 172] ; IC50 observed: 620 nM

Sample CCC(C)(C)c1ccc(O[C@H]2CCN(c3cc(=O)n(C)c4ccc(C#N)nc34)C[C@H]2C)cc1 [Example 169] ; IC50 observed: 600 nM

Sample C[C@@H]1CN(c2cc(=O)n(C)c3ccc(C#N)nc23)CC[C@H]1Oc1ccc(OC(C)(C)C)cc1 ; IC50 observed: 720 nM

###

biological target: human DGKζ (Homo sapiens (Human), UniProt Q13574); assay: biochemical; type: biochemical; details: liposome (LIPGLO) assay; read-out: DGKζ LIPGLO IC50
Sequence (Q13574 whole entry, looked up): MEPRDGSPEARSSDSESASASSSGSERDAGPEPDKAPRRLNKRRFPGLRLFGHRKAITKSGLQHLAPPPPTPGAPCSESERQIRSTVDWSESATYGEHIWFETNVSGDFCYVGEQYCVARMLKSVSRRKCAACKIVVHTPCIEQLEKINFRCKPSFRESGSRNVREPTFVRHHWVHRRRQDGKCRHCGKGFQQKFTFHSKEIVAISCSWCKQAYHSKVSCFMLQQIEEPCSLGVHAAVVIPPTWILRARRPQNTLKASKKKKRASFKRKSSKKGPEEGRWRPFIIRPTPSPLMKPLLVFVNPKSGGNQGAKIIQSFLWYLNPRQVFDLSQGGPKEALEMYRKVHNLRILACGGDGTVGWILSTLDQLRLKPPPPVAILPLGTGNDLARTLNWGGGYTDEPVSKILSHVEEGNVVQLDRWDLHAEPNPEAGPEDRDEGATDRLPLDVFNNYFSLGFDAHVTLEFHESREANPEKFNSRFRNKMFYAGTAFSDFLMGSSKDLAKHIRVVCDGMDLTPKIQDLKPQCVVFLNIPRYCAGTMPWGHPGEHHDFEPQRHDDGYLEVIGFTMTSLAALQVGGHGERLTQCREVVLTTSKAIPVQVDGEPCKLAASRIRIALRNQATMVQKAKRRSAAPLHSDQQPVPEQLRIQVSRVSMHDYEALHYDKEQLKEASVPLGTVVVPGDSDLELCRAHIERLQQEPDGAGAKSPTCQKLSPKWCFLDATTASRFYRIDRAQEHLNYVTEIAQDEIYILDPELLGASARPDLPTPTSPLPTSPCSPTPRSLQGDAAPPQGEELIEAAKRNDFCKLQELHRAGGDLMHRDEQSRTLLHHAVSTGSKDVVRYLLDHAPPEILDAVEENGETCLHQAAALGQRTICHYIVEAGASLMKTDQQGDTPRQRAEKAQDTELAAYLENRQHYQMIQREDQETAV
Known IC50 of a selection of molecules
Give your result in µM as a bare value.

Recorded results for 3 molecules are shown here.
molecule=Cn1c(=O)c(C#N)c(N2CCC(Oc3ccc(F)cc3)CC2)c2nc(Cl)ccc21 result=16
molecule="CCC(C)(C)c1ccc(O[C@@H]2CCN(c3cc(=O)n(C)c4ccc(C#N)nc34)C[C@H]2C)cc1 (single isomer, unassigned) [Example 84]" result=23
molecule=COc1ccc(OC2CCN(c3c(C#N)c(=O)n(C)c4ccc(Cl)nc34)CC2)cc1 result=13

Sample Cn1c(=O)c(C#N)c(N2CCC(Oc3ccc(OC(F)(F)F)c(F)c3)CC2)c2nc(Cl)ccc21 ; IC50 observed: 240

meta.source: patent US11964973B2
